STUDY TARGET: Peptidyl-prolyl cis-trans isomerase FKBP1A (Homo sapiens)
Sequence (P62942 whole entry): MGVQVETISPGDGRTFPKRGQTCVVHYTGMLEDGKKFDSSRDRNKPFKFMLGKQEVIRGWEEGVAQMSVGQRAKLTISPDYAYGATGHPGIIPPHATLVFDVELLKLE
EXPERIMENT NOTES: Ability to bind the major cystolic receptor FK506 binding protein 12 by using competitive binding assay
Attribute: EC50
Give just the number in nM; leave the unit off.

{"COMPOUND": "CC[C@@H]1/C=C(\\C)C[C@H](C)C[C@H](OC)[C@H]2OC(O)(C(=O)C(=O)N3CCCC[C@H]3C(=O)O[C@H](/C(C)=C/[C@@H]3CC[C@@H](O)[C@H](OCc4ccsc4)C3)[C@H](C)[C@@H](O)CC1=O)[C@@H](C)C[C@@H]2OC", "REPORTED ENDPOINT": "EC50", "NUMBER": 5.7}
{"COMPOUND": "C=CC(C)O[C@@H]1CC[C@@H](/C=C(\\C)[C@H]2OC(=O)[C@@H]3CCCCN3C(=O)C(=O)C3(O)O[C@H]([C@@H](OC)C[C@@H](C)C/C(C)=C/[C@@H](CC)C(=O)C[C@H](O)[C@H]2C)[C@@H](OC)C[C@@H]3C)C[C@H]1O (some centres undefined)", "REPORTED ENDPOINT": "EC50", "NUMBER": 14.9}
{"COMPOUND": "CC[C@@H]1/C=C(\\C)C[C@H](C)C[C@H](OC)[C@H]2OC(O)(C(=O)C(=O)N3CCCC[C@H]3C(=O)O[C@H](/C(C)=C/[C@@H]3CC[C@@H](OCc4ccco4)[C@H](O)C3)[C@H](C)[C@@H](O)CC1=O)[C@@H](C)C[C@@H]2OC", "REPORTED ENDPOINT": "EC50", "NUMBER": 15.6}
{"COMPOUND": "C/C=C/CO[C@@H]1C[C@H](/C=C(\\C)[C@H]2OC(=O)[C@@H]3CCCCN3C(=O)C(=O)C3(O)O[C@H]([C@@H](OC)C[C@@H](C)C/C(C)=C/[C@@H](CC)C(=O)C[C@H](O)[C@H]2C)[C@@H](OC)C[C@@H]3C)CC[C@H]1O", "REPORTED ENDPOINT": "EC50", "NUMBER": 7}
{"COMPOUND": "C=CC(C)O[C@@H]1C[C@H](/C=C(\\C)[C@H]2OC(=O)[C@@H]3CCCCN3C(=O)C(=O)C3(O)O[C@H]([C@@H](OC)C[C@@H](C)C/C(C)=C/[C@@H](CC)C(=O)C[C@H](O)[C@H]2C)[C@@H](OC)C[C@@H]3C)CC[C@H]1O (some centres undefined)", "REPORTED ENDPOINT": "EC50", "NUMBER": 6.6}
{"COMPOUND": "C/C=C/CO[C@@H]1CC[C@@H](/C=C(\\C)[C@H]2OC(=O)[C@@H]3CCCCN3C(=O)C(=O)C3(O)O[C@H]([C@@H](OC)C[C@@H](C)C/C(C)=C/[C@@H](CC)C(=O)C[C@H](O)[C@H]2C)[C@@H](OC)C[C@@H]3C)C[C@H]1O", "REPORTED ENDPOINT": "EC50", "NUMBER": 9.2}
{"COMPOUND": "CC[C@@H]1/C=C(\\C)C[C@H](C)C[C@H](OC)[C@H]2OC(O)(C(=O)C(=O)N3CCCC[C@H]3C(=O)O[C@H](/C(C)=C/[C@@H]3CC[C@@H](O)[C@H](OCc4cccs4)C3)[C@H](C)[C@@H](O)CC1=O)[C@@H](C)C[C@@H]2OC", "REPORTED ENDPOINT": "EC50", "NUMBER": 10.3}
{"COMPOUND": "C=CCO[C@@H]1CC[C@@H](/C=C(\\C)[C@H]2OC(=O)[C@@H]3CCCCN3C(=O)C(=O)C3(O)O[C@H]([C@@H](OC)C[C@@H](C)C/C(C)=C/[C@@H](CC)C(=O)C[C@H](O)[C@H]2C)[C@@H](OC)C[C@@H]3C)C[C@H]1O", "REPORTED ENDPOINT": "EC50", "NUMBER": 6.1}

Next:
For Peptidyl-prolyl cis-trans isomerase FKBP1A (Homo sapiens), give EC50 of the listed compound: `CC[C@@H]1/C=C(\C)C[C@H](C)C[C@H](OC)[C@H]2OC(O)(C(=O)C(=O)N3CCCC[C@H]3C(=O)O[C@H](/C(C)=C/[C@@H]3CC[C@@H](OCc4ccsc4)[C@H](O)C3)[C@H](C)[C@@H](O)CC1=O)[C@@H](C)C[C@@H]2OC` 12
